Target: T1, REGN2431 (hmm.hTfRC): monomeric human Tfrc ectodomain (C89-F760) with N-terminal hexahistidine-myc-myc tag (human, UniProt P02786 89-760)
T1 construct: also called hmm.hTfR(C89-F763); hTFR-mmh
T1 sequence (P02786 other isoform, or with tags, fused parts or gaps): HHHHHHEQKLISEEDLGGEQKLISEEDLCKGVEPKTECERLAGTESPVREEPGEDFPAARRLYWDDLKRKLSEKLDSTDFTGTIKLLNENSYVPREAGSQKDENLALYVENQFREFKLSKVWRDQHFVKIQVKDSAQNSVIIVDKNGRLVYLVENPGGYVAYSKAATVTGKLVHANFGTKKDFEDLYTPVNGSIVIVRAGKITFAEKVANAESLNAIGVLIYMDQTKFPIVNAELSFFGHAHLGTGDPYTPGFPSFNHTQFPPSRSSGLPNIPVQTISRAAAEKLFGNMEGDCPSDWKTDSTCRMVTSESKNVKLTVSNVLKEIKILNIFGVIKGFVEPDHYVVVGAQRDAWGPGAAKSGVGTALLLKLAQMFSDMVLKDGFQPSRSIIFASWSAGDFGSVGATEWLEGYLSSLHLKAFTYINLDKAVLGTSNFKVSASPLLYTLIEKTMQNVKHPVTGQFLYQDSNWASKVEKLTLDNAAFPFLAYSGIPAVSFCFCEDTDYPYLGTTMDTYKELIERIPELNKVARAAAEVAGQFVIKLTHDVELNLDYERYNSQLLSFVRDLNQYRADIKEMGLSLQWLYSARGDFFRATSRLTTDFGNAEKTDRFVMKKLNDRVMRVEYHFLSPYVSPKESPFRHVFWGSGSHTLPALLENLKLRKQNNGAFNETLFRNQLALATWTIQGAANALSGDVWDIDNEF
Test: SPR Biacore, IgG captured by anti-hFc, 25 C
Method: Biacore binding kinetics assays were conducted for the interaction of 32 anti-human TfR IgG1 monoclonal antibodies from CHO supernatants with TfR reagents at 25° C. Equilibrium dissociation constants (KD) for the interaction of anti-TfR monoclonal antibodies with human and fascicularis monkey TfR ecto domain recombinant proteins were determined using a real-time surface plasmon resonance (SPR) based Biacore S200 biosensor. […]
t1/2 by entry:
// return numeric value only (unit: min, not printed)

For orientation, consider the following solved cases.
| binder | unit spec | numeric readout |
| --- | --- | --- |
| 69340 anti-hTfR monoclonal antibody (bivalent IgG1) (antibody, V domains shown, hIgG1/kappa) VH: EVQLVESGGGLVQPGRSLRLSCAASGFTFDDKAMHWVRQVPGKGLEWISGISWNSGTIGYADSVKGRFIISRDNAKNSLYLQMNSLRAEDTALYYCAKDGDTSGWYWYGLDVWGQGTTVTVSS VL: EIVLTQSPATLSLSPGERATLSCRASQSVSSYLAWYQQKPGQAPRLLIHDVSNRATGIPARFSGSGSGTDFTLTISSLEPEDFVVYYCQQRSDWPITFGQGTRLEIKR | min | 185 |
| 69331 anti-hTfR monoclonal antibody (bivalent IgG1) (antibody, V domains shown, hIgG1/kappa) VH: QVQLVESGGGVVQPGRSLRLSCIASGFTFSVYGIHWVRQAPGKGLEWMAVISHDGNIKHYADSVKGRFTISRDNSKNTLYLQINSLRTEDTAVYYCAKDTWNSLDTFDIWGQGTMVTVSS VL: DIQLTQSPSSLSASVGDRVTITCWASQGISSYLAWYQQKPGKAPKLLIYAASTLQSGVPSRFSGSGSGTEFTLTISSLQPEDFATYYCQQLNSYPLTFGGGTKVEIKR | min | 2.5 |
| 31874B anti-hTfR monoclonal antibody (bivalent IgG1) (antibody, V domains shown, hIgG1/kappa; also called H1H31874B; REGN17517) VH: EVQLVESGGGLVQPGGSLRLSCAASGFAFSSYAMTWVRQAPGKGLEWVSVISGTGGSTYYADSVKGRFTISRDNSKNTLYLQMNSLRAEDTAVYYCAKGGAARRMEYFQYWGQGTLVTVSS VL: DIQMTQSPSSLSASVGDRVTITCRASQGISNYLAWYQQKPGKVPNLLIYAASTLQSGVPSRFSGSGSGTDFTLTISSLQPEDVATYYCQKYNSAPLTFGGGTKVEIKR | min | 100 |
| 69326 anti-hTfR monoclonal antibody (bivalent IgG1) (antibody, V domains shown, hIgG1/kappa) VH: EVQLVESGGGLVQPGGSLRLSCAVSGFIFSSYEMNWVRQAPGKGLEWVSYISSSGSTIFYADSVKGRFTISRDNAKNSLYLQMNSLRAEDTAVYYCVSGVVLFDVWGQGTMVTVSS VL: EIVMTQSPATLSVSPGERATLSCRASQSVSSNFAWYQQKPGQAPRLLIYSASSRATGIPVRFSGSGSGTEFTLTISSLQSEDFAVYYCQQYNIWPRTFGQGTKVEIKR | min | 45.1 |

Consider the additional binder presented here.
# input binder: 12812B anti-hTfR monoclonal antibody (bivalent IgG1) (antibody, V domains shown, hIgG1/kappa; also called H1H12812B; REGN17708) VH: QVQLVQSGAEVKKPGSSVRVSCKASRGTFSSYAISWVRQAPGQGLEWMGGIIPIFGTANYAQKFLARVTITADESTSTAYMELSSLRSEDTAVYYCAREKGWNYFDYWGQGTLVTVSS VL: DIQMTQSPPSVSASVGDRVTITCRASQGISSWLAWYQQKPGKAPKLLIYAASSLQSGVPSRFSGSGSGTDFTLTISSLQPEDFATYYCQQANSFPRTFGQGTKVEIKR ; wanted: its t1/2
8.8
